melting point by entry:

Consider the reported melting point for these compounds:
> print(dat)
                                   compound  readout.label  value.observed
1  O=S(=O)(Nc1ccc(/C=C/c2ccccc2)cc1)c1ccccc1 [2a]  melting point   160 to 162 °C
2  CC(=O)Nc1ccc(S(=O)(=O)Nc2ccc(/C=C/c3ccccc3)cc2)cc1 [2f]  melting point   230 to 231 °C
3  COc1ccc(S(=O)(=O)Nc2ccc(/C=C/c3ccccc3)cc2)c(OC)c1 [2g]  melting point   213 to 215 °C
4  COc1ccc(S(=O)(=O)Oc2ccc(/C=C/c3ccccc3)cc2)c(OC)c1 [1g]  melting point   141 to 142 °C
5  N#Cc1ccc(S(=O)(=O)Nc2ccc(/C=C/c3ccccc3)cc2)cc1 [2e]  melting point   238 to 239 °C

GET /value?item= CCS(=O)(=O)Oc1ccc(/C=C/c2ccccc2)cc1 [1i] &field=melting point returns 112 to 114 °C

Per the record, CCS(=O)(=O)Nc1ccc(/C=C/c2ccccc2)cc1 [2i] has melting point of 230 to 231 °C

Data point: Cc1ccc(S(=O)(=O)Nc2ccc(/C=C/c3ccccc3)cc2)cc1 [2d] ; melting point = 182 to 183 °C

Summary for this compound, O=[N+]([O-])c1cccc(S(=O)(=O)Nc2ccc(/C=C/c3ccccc3)cc2)c1 [2b] : melting point is 210 to 211 °C

Looking up O=S(=O)(Oc1ccc(/C=C/c2ccccc2)cc1)c1ccc(Cl)s1 [1k] , I see its melting point listed as 160 to 162 °C
